Attribution: PubChem BioAssay (NCI)

Assay: NCI Yeast Anticancer Drug Screen. Data for the rad50 strain (AID 155);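 note: 0% = growth of vehicle-only cultures of the same strain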
Settings: S. cerevisiae rad50 strain growth inhibition; at 50.0 µM
Method: Growth inhibition of yeast strains with defined genetic alterations is measured as a screen for potential anti-cancer activity. Selected strains with alterations in DNA damage repair or cell cycle control were exposed to compounds and growth inhibition was measured relative to vehicle treated controls. The strain used in this assay is rad50
This is part of a sample that, as a whole, favours compounds with a hit. Of some 79,000 tested, about 15% had one in any assay. Activity calls are given as the source filed them. Cut-off read from the data, not from the text of the source: active = growth inhibition above about 70%; inactive = the rest.
The reply should name one outcome from active, inactive

Example entries begin here.
Nc1ccccc1OCC(O)CN1CCN(Cc2ccccc2)CC1 (stereo unspecified) : active
O=C1CC(c2ccccc2)C(=O)N2C(=O)CC(c3ccccc3)C(=O)N12 (stereo unspecified) : inactive
CCCCOP(=O)(OCCCC)C(NS(=O)(=O)c1ccccc1)(C(=O)OCC)C(F)(F)F (stereo unspecified) : active
O=C1C(c2ccccc2)=S=C2C=CC=CN12 : active
CCOc1ccccc1N1C(=O)C=CC1=O : active

Asked: // return assay outcome for CCOP(=O)(CCCOc1cc(Cl)c(Cl)cc1Cl)OCC
Given back: active

----------
Assay: NCI Yeast Anticancer Drug Screen. Data for the mlh1 rad18 strain (AID 175)
Details: S. cerevisiae mlh1 rad18 strain growth inhibition; at 5.0 µM (retest, dose inferred, filed as 0.5); active compounds read high
This is part of a sample that, as a whole, favours compounds with a hit. Of some 79,000 tested, about 15% had one in any assay.
Result Type: growth inhibition (%)
Write it as a number; the unit % goes unstated.

Example entries begin here.
COC(=O)c1cc(=O)n(-c2ccccc2OC)c(SC)n1 : -2
N/N=C(\N)c1ccc2ccc3cccnc3c2n1 : 13
O=[N+]([O-])c1ccc(-c2nc3ccc(F)cc3[nH]2)o1 : 94
Cc1ccc(S(=O)(=O)NC(=O)CC2CCCCC2)cc1 : 22

Asked: Reported growth inhibition, molecule O=c1ccccn1CCc1cccc2cc(O)ccc12 : ____
Given back: -3

Asked: Reported growth inhibition, molecule CCOc1ncc(Cl)c(OCC)n1 : ____
Given back: 2

Asked: Reported growth inhibition, molecule NC(=O)/C(=N\NC(=O)c1cc2ccccc2cc1O)C1C(=O)N(c2ccccc2)N=C1N (configuration not stated) : ____
Given back: 25

Asked: Reported growth inhibition, molecule CCCCOc1c(OCCCC)c(=O)c1=O : ____
Given back: 78

Asked: Reported growth inhibition, molecule O=C(O)CCSSCCCCCS(=O)O : ____
Given back: 0

Asked: Reported growth inhibition, molecule Cc1ccc2c(c1)[n+]([O-])c(N)c(C#N)[n+]2[O-] : ____
Given back: -48

Asked: Reported growth inhibition, molecule COc1cc2c(ccc3cc4cccc[n+]4cc32)c(Br)c1OC : ____
Given back: 4

Asked: Reported growth inhibition, molecule COc1ccc(C(=O)CC2(O)C(=O)N(C)c3c(Cl)cc(Cl)cc32)cc1 (configuration not stated) : ____
Given back: -2

----------
Assay: NCI Yeast Anticancer Drug Screen. Data for the rad50 strain (AID 155);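 note: 0% = growth of vehicle-only cultures of the same strain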
Conditions: S. cerevisiae rad50 strain growth inhibition; at 50.0 µM (retest, dose inferred, filed as 5.0); active compounds read high
The panel holds about 79,000 compounds, 15% with a hit somewhere; the sample as a whole holds those more often.
Result Type: growth inhibition (%)
Write it as a number; the unit % goes unstated.

CC(=O)c1c2c(cc3c1CC1(C3)Cc3ccc4c(c3C1=O)CCC4)CCC2 (stereo unspecified) : 1

Asked: Reported growth inhibition, molecule CCC(CC)(C(=O)Nc1ccc2c(c1)c(=O)c1ccccc1n2C)C(=O)Nc1ccc2c(c1)c(=O)c1ccccc1n2C : ____
Given back: 97

Asked: Reported growth inhibition, molecule OCCOCCO[P+]1(OCCOCCO)n2c3ccc2C(c2ccccc2)=C2C=CC(=N2)C(c2ccccc2)=c2ccc(n21)=C(c1ccccc1)C1=NC(=C3c2ccccc2)C=C1 : ____
Given back: 98

Asked: Reported growth inhibition, molecule CCOC(=O)/C(=C/c1ccccn1)C(=O)c1ccccc1 : ____
Given back: 85

Asked: Reported growth inhibition, molecule O=C(Nc1ccc(S(=O)(=O)NC2CCCCC2)cc1)OC1CCCCC1 : ____
Given back: 95

Asked: Reported growth inhibition, molecule O=C(NCCCCCNC(=O)C12CC3CC(CC(C3)C1)C2)C12CC3CC(CC(C3)C1)C2 : ____
Given back: 7

Asked: Reported growth inhibition, molecule O=C1NOCC1N=Cc1cc(Cl)ccc1O (stereo unspecified) : ____
Given back: 65
